- methodDescription: Part B clinical DDI: plasma pharmacokinetics of daprodustat and predominant metabolites with or without steady-state trimethoprim
- Assay type: in vivo, human
- testConditions: both sexes, human, oral; test: two 100 mg trimethoprim tablets (steady state) + 25 mg daprodustat, plasma; geometric LS mean (%CV); read-out: AUC0-∞, Test
measurementLabel: AUC(0-inf) (ng·h/mL)

1) O=C(O)CNC(=O)C1C(=O)N(C2CCCCC2)C(=O)N(C2CCCCC2)C1=O; 1370

---

- methodDescription: Part A clinical DDI: plasma pharmacokinetics of pioglitazone and rosuvastatin with or without 100 mg daprodustat
- testConditions: both, human, in vivo, 100 mg
- Experimental: […] Plasma analysis was performed under the management of Bioanalytical Science and Toxicokinetics, Drug Metabolism and Pharmacokinetics (DMPK), and GlaxoSmithKline (GSK). […] Samples were shipped frozen to PPD (Middleton, WI) where plasma samples were analyzed for rosuvastatin, pioglitazone, or daprodustat and predominant metabolites (GSK2391220 (M2), GSK2531403 (M3), GSK2487818 (M4), GSK2506102 (M5), GSK2531398 (M6), and GSK2531401 (M13)). […]
measurementLabel: Cmax

1) O=C(O)CNC(=O)C1C(=O)N(C2CCCCC2)C(=O)N(C2CCCCC2)C1=O [daprodustat]; ~4.5 µM

---

- methodDescription: Part B clinical DDI: plasma pharmacokinetics of daprodustat and predominant metabolites with or without steady-state trimethoprim
- Assay type: in vivo, human
- testConditions: both sexes, human, oral; test: two 100 mg trimethoprim tablets (steady state) + 25 mg daprodustat, plasma; geometric LS mean (%CV); read-out: AUC0-t, Test
measurementLabel: AUC(0-t) (ng·h/mL)

1) O=C(O)CNC(=O)C1C(=O)N(C2CCCCC2)C(=O)N(C2CCCCC2)C1=O; 1370
